Target: UniProt:P14902
Sequence (P14902 whole entry): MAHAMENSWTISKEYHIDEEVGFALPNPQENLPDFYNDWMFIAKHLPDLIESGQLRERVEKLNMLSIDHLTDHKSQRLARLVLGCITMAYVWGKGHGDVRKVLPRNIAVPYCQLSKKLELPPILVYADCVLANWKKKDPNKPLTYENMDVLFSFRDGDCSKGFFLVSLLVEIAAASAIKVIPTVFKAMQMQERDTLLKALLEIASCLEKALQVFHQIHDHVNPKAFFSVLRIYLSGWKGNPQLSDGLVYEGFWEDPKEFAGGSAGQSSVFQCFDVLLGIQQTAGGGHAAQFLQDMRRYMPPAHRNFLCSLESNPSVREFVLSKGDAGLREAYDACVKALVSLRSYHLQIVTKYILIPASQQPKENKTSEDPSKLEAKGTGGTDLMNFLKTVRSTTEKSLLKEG
Experiment: IDO1 Cellular Assay in Hela Cells Stimulated with IFNγ
Assay type: cell-based
Conditions: IFNγ 100 ng/mL, 300 uM L-tryptophan, about 48 hours, fluorescence readout, read-out: IDO1 HELA Cell Assay, IC50
Experimental: Biological Assays IDO1 Cellular Assay in Hela Cells Stimulated with IFNγ Hela cells were cultured in complete Hela culture medium ([…], 10% heat-inactivated fetal bovine serum) and expanded to about 1×10^9 cells. […] Hela cells with and without IFNγ were dispensed to the respective wells of 384-well assay plates containing the compounds. […] The resulting fluorescence was measured in a Spectramax plate reader (Molecular Devices) with a 400 nm excitation filter and a 510 nm emission filter. […]
Endpoint Name: pIC50
# pIC50: negative log10 of molar concentration; output just the value

Guide cases for pIC50, answers given:
C[C@H](C(=O)Nc1ccc(F)cc1)C12CC(NC(=O)OC(C)(C)C)(C1)C2 (single isomer, unassigned)    6.94
O=C(NC1(C23CC(NC(=O)c4ccc(Cl)cn4)(C2)C3)CC1)c1ccc(F)cc1    7.08
Cc1ccnc(C(=O)NC23CC(C(C)C(=O)Nc4ccc(F)cc4)(C2)C3)c1 (stereo not shown)    7.05
Cc1ccc(C(=O)NC23CC([C@H](C)C(=O)Nc4ccc(F)cc4)(C2)C3)cc1Cl    6.60
CC(C(=O)Nc1ccc(Cl)cc1)C12CC(NC(=O)c3cccc(Cl)c3)(C1)C2 (single isomer, unassigned) [Example 6]    7.41

# query: pIC50 of entry `C[C@H](C(=O)Nc1ccc(F)cc1)C12CC(NC(=O)c3cnc(Cl)c(Cl)c3)(C1)C2`
7.94

Try this molecule too: Cc1cc(C(=O)NC23CC(C(C)C(=O)Nc4ccc(F)cc4)(C2)C3)n(C)n1 (stereo not shown)
6.40

How about this molecule: `C[C@H](C(=O)Nc1ccc(F)c(C(F)(F)F)c1)C12CC(NC(=O)c3ccc(Cl)c(Cl)c3)(C1)C2`
7.22

Next: `C[C@H](C(=O)Nc1ccc(F)cc1)C12CC(NC(=O)Nc3cccc(Cl)c3)(C1)C2`
7.81
